- TGT: Oxaloacetate decarboxylase (Pseudomonas aeruginosa (strain ATCC 15692 / DSM 22644 / CIP 104116 / JCM 14847 / LMG 12228 / 1C / PRS 101 / PAO1))
- Sequence (Q9HUU1 whole entry): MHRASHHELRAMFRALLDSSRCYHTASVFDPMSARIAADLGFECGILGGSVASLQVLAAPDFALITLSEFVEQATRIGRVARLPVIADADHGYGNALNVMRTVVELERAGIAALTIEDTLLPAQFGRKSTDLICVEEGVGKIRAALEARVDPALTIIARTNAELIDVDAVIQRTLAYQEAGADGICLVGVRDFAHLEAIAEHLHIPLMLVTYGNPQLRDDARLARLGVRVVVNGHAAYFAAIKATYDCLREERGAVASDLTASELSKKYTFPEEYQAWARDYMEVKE
- EXPERIMENT_SUMMARY: Inhibition Assay
Measured Ki of individual entries
Your answer should be a plain number; it is taken to be in µM.

// below: answered compounds
1. O=C(O)C(=O)O ... 43
2. O=C(O)C(=O)CP(=O)(O)O [Phosphonopyruvate] ... 3000
3. CC(=O)C(=O)O [Pyruvate] ... 7200

Next compound, please.
Form field Ki, entry O=C(O)C(O)(O)C(F)(F)C(=O)O [3,3-Difluoroxaloacetate] : 450

All values here come from BindingDB's records for doi:10.1021/bi701954p.
